Values from ChEMBL document CHEMBL3286360

Each entry below lists one item and its recorded MIC value.
- Tested on: Candida albicans
- method description: Antimicrobial activity against Candida albicans ATCC 14053 after 17 to 20 hrs by serial dilution method
- Format: functional
Where a SMILES comes first, the peptide text is derived from it. The star is where a group is joined. Stearoyl = CCCCCCCCCCCCCCCCCC(=O)*; Myristoyl = CCCCCCCCCCCCCC(=O)*; Decanoyl = CCCCCCCCCC(=O)*

Study these solved cases before continuing.
{"compound": "CCCCCCCCCCCCCC(=O)N[C@@H](CCCNC(=N)N)C(=O)N[C@@H](CCCCN)C(=O)N[C@@H](Cc1c[nH]c2ccccc12)C(=O)N[C@@H](Cc1c[nH]c2ccccc12)C(=O)N[C@@H](CCCCN)C(N)=O (Myristoyl-RKWWK-NH2)", "MIC": "> 62.5 mg/L"}
{"compound": "CCCCCCCCCC(=O)N[C@@H](CCCNC(=N)N)C(=O)N[C@@H](Cc1c[nH]c2ccccc12)C(=O)N[C@@H](CCCNC(=N)N)C(=O)N[C@@H](Cc1c[nH]c2ccccc12)C(N)=O (Decanoyl-RWRW-NH2)", "MIC": "> 62.5 mg/L"}
{"compound": "CCCCCCCCCC(=O)N[C@@H](CCCNC(=N)N)C(=O)N[C@H](C(=O)N[C@@H](CCCCN)C(=O)N[C@@H](Cc1c[nH]c2ccccc12)C(=O)N[C@@H](Cc1c[nH]c2ccccc12)C(=O)N[C@@H](CCCCN)C(N)=O)[C@@H](C)CC (Decanoyl-RIKWWK-NH2)", "MIC": "> 62.5 mg/L"}
{"compound": "CCCCCCCCCC(=O)N[C@@H](CCCCN)C(=O)N[C@H](C(=O)N[C@@H](CCCNC(=N)N)C(=O)N[C@@H](Cc1c[nH]c2ccccc12)C(=O)N[C@@H](Cc1c[nH]c2ccccc12)C(=O)N[C@@H](CCCNC(=N)N)C(N)=O)[C@@H](C)CC (Decanoyl-KIRWWR-NH2)", "MIC": "> 62.5 mg/L"}
{"compound": "CCCCCCCCCCCCCC(=O)N[C@@H](CCCCN)C(=O)N[C@@H](Cc1c[nH]c2ccccc12)C(=O)N[C@@H](Cc1c[nH]c2ccccc12)C(=O)N[C@@H](CCCCN)C(N)=O (Myristoyl-KWWK-NH2)", "MIC": "15.6 mg/L"}
{"compound": "CCCCCCCCCCCCCCCCCC(=O)N[C@@H](CCCNC(=N)N)C(=O)N[C@@H](Cc1c[nH]c2ccccc12)C(=O)N[C@@H](CCCNC(=N)N)C(N)=O (Stearoyl-Arg-Trp-Arg-NH2)", "MIC": "> 62.5 mg/L"}

For record CCCCCCCCCC(=O)N[C@@H](CCCCN)C(=O)N[C@@H](CCCCN)C(=O)N[C@@H](Cc1c[nH]c2ccccc12)C(=O)N[C@@H](Cc1c[nH]c2ccccc12)C(N)=O (Decanoyl-KKWW-NH2) the listed MIC is 31.2 mg/L

Quick note, MIC for CCCCCCCCCCCCCCCCCC(=O)N[C@@H](CCCCN)C(=O)N[C@H](C(=O)N[C@@H](CCCCN)C(=O)N[C@@H](CCCNC(=N)N)C(=O)N[C@@H](Cc1c[nH]c2ccccc12)C(=O)N[C@@H](CCCNC(=N)N)C(N)=O)[C@@H](C)CC (Stearoyl-KIKRWR-NH2) landed at > 62.5 mg/L

Record summary for CCCCCCCCCCCCCCCCCC(=O)N[C@@H](CCCNC(=N)N)C(=O)N[C@@H](Cc1c[nH]c2ccccc12)C(=O)N[C@@H](Cc1c[nH]c2ccccc12)C(=O)N[C@@H](CCCNC(=N)N)C(N)=O (Stearoyl-RWWR-NH2) : reported MIC = > 62.5 mg/L
